For each entry below, report its concentration at 1 h value.
experiment: Drug level in mouse blood at 50 mg/kg, po after 1 hr by microbiological assay; format: ADME, organism-based; design: dose 50 mg/kg, route oral; conditions: read-out: Drug uptake
// units = ng/mL; emit number, no label

For the compound N[C@@H](C(=O)N[C@@H]1C(=O)N2C(C(=O)O)=C(Cc3cncc(C(=O)O)c3)CS[C@H]12)c1ccccc1 , give its measured concentration at 1 h value. 1500

For the compound N[C@@H](C(=O)N[C@@H]1C(=O)N2C(C(=O)O)=C(Cc3ccccc3)CS[C@H]12)c1ccccc1 , give its measured concentration at 1 h value. 190

For the compound N[C@@H](C(=O)N[C@@H]1C(=O)N2C(C(=O)O)=C(Cc3ccccc3C(=O)O)CS[C@H]12)c1ccccc1 , give its measured concentration at 1 h value. 3200

For the compound N[C@@H](C(=O)N[C@@H]1C(=O)N2C(C(=O)O)=C(Cc3ccc(C(=O)O)cc3)CS[C@H]12)c1ccccc1 , give its measured concentration at 1 h value. 2400

For the compound N[C@@H](C(=O)N[C@@H]1C(=O)N2C(C(=O)O)=C(Cc3cccnc3)CS[C@H]12)c1ccccc1 , give its measured concentration at 1 h value. 620

For the compound N[C@@H](C(=O)N[C@@H]1C(=O)N2C(C(=O)O)=C(Cc3cccc(C(=O)O)c3)CS[C@H]12)c1ccccc1 , give its measured concentration at 1 h value. 1700

For the compound CC(=O)OCC1=C(C(=O)O)N2C(=O)[C@@H](NC(=O)[C@H](N)c3ccccc3)[C@H]2SC1 [CEPHALOGLYCIN] , give its measured concentration at 1 h value. 600

For the compound CC1=C(C(=O)O)N2C(=O)[C@@H](NC(=O)[C@H](N)c3ccccc3)[C@H]2SC1 [CEPHALEXIN ANHYDROUS] , give its measured concentration at 1 h value. 8300
